# Assay Method Text: Toxicity liver stage against HepG2, at 10uM
# Type: cell-based
# Design: test concentration 10 uM, cell line HepG2-A16-CD81EGFP
# Measurement Conditions: human, HepG2-A16-CD81EGFP cells; read-out: INHIBITION
Entries and their cytotoxicity at 10 µM values follow.
Just the number in %, nothing appended.

Take a look at these entries with their results.
COc1ncccc1C(=O)N1CC[C@H]2C[C@H](c3ccncn3)O[C@@H]2C1 :: 9.4
CCCc1cc(C(=O)N2Cc3cnc(C(C)(C)C)nc3C2)ccn1 :: -0.807
N#Cc1cnn(CCN2CCOC(CNc3cccnn3)C2)c1 (stereo not given) :: -3.85

Kindly note the recorded cytotoxicity at 10 µM for O=C(CCC(=O)N1CCC(Oc2ncccc2Br)CC1)c1ccccc1 , which is 30.4

Kindly note the recorded cytotoxicity at 10 µM for CN(Cc1cc(-c2ccncc2)no1)Cc1nccn1C , which is 0.884

Kindly note the recorded cytotoxicity at 10 µM for CNC(=O)Nc1cc(-c2ccc(Br)cc2)nn1CCO , which is -1.35

Kindly note the recorded cytotoxicity at 10 µM for COc1cc(NC2CCCN(c3ncccc3C#N)C2)cc(OC)c1 (stereo not given) , which is -9.25

Kindly note the recorded cytotoxicity at 10 µM for CC(C)NC(=O)N1CCOC2(CCCN(c3cccc(C#N)c3)C2)C1 (stereo not given) , which is 11.8

Kindly note the recorded cytotoxicity at 10 µM for COc1ccc(OC)c(S(=O)(=O)NC(=O)C(C)OC)c1 (stereo not given) , which is -1.2

Kindly note the recorded cytotoxicity at 10 µM for CN(C)c1cc(CNC(=O)c2cn(-c3ccc(F)cc3)nn2)ccn1 , which is 11.5

Kindly note the recorded cytotoxicity at 10 µM for O=C(Nc1ccccc1)C1CN(C(=O)c2cccs2)CC12CCOCC2 (stereo not given) , which is -2.13

Kindly note the recorded cytotoxicity at 10 µM for CN(C)[C@@H]1CN(C(=O)COc2cccc(F)c2)C[C@H]1O , which is -10.4

Kindly note the recorded cytotoxicity at 10 µM for Cc1ccccc1Cn1nnc2cc3c(cc2c1=O)OCCO3 , which is 1.11

Kindly note the recorded cytotoxicity at 10 µM for CCn1ccc(-c2cc(C(=O)O)n3nc(C)c(Cl)c3n2)n1 , which is -3.48

Kindly note the recorded cytotoxicity at 10 µM for C[C@@H]1CN(c2nc(N)nc3c2CCC3)C[C@]1(C)O , which is 4.6

Kindly note the recorded cytotoxicity at 10 µM for CCc1ccc(CN2C[C@H](OCC(=O)N(C)C)[C@H]3COC[C@H]32)o1 , which is 2.46

* * *

Entries and their cytotoxicity at 10 µM values follow.
# Assay Method Text: Toxicity liver stage against HepG2, at 10uM
# Format: cell-based
# Design: test concentration 10 uM, cell line HepG2-A16-CD81EGFP
# Measurement Conditions: human, HepG2-A16-CD81EGFP cells; read-out: INHIBITION
Just the number in %, nothing appended.

CC(C)N(Cc1c[nH]nc1-c1ccc2c(c1)OCO2)Cc1nccn1C :: -7.8
c1ccc(CN2CCCn3nnc(COc4ccccn4)c3C2)nc1 :: 8.43
Cc1cnn(CCC(=O)N2CCCC(c3nc(C)no3)C2)c1 (centres undefined) :: -1.59

Next item in the queue.
Kindly note the recorded cytotoxicity at 10 µM for NC(=O)C1CCN(C(=O)c2ccc(Cn3cc(Br)cn3)cc2)CC1 , which is -6.24
